All figures here come from patent US7875618B2.

Target: PDE10 from pig striatum (Sus scrofa)
Experiment: Inhibition of PDE10 from pig striatum ([3H]-cAMP SPA, Methods A and B)
Format: biochemical
Conditions: PDE10 pig
Quantity Name: IC50

> print(dat)
                                    compound  recorded.measurement
 1               CCc1nc(C)c2c(C)nc3ccccc3n12              ≥ 100 nM
 2  Cc1nc(-c2ccc(F)cc2F)n2c1c(C)nc1ccc(F)cc12          10 to 100 nM
 3  Cc1ccccc1-c1nc(C)c2c(C)nc3c(O)cc(O)cc3n12               ≤ 10 nM
 4  COc1cccc(-c2nc(C)c3c(C)nc4ccc(F)cc4n23)c1               ≤ 10 nM
 5  Cc1nc(C2CCCCC2)n2c1c(N)nc1ccc(OCC3CC3)cc12          10 to 100 nM
 6  Cc1nc(-c2cc(Cl)ccc2Cl)n2c1c(C)nc1ccc(F)cc12          10 to 100 nM
 7  Cc1nc(-c2ccccc2Cl)n2c1c(C)nc1cc(OCc3cccc(N)c3)ccc12               ≤ 10 nM
 8  Cc1noc(C)c1-c1nc(C)c2c(C)nc3ccc(F)cc3n12              ≥ 100 nM
 9           CCCc1nc(C)c2c(N)nc3ccc(F)cc3n12          10 to 100 nM
10  Cc1nc(-c2ccccc2OC(F)(F)F)n2c1c(C)nc1ccc(F)cc12          10 to 100 nM
11  Cc1nc(C2CCCCC2)n2c1c(Cl)nc1ccc(Cl)cc12 [Intermediate B9]              ≥ 100 nM
12  CCCc1nc(C)c2c(Cl)nc3ccc(F)cc3n12 [Intermediate B6]          10 to 100 nM
